Where do these numbers come from? They come from the supplement of paper PMC10567573.

B1: SCNN1D (parent)
chain: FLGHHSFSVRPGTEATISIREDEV

# Variants of: B1
# experiment: protein stability index of a GFP-peptide fusion (GPS, HEK-293T) (PSI 1-6); higher = more stable;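 also: lentivirally expressed fusions sorted by FACS into six bins by GFP to DsRed ratio, PSI derived from sequencing read proportions per bin multiplied by bin number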
# measurementContext: c terminus: a fixed tail appended
Rule: protein stability index of 2 or more gives fulfilled; anything lower gives not fulfilled.

>  <mutantLabel>
F7I

>  <labelValue>
fulfilled

$$$$
>  <mutantLabel>
E14N

>  <labelValue>
not fulfilled

$$$$
>  <mutantLabel>
S6Y

>  <labelValue>
fulfilled

$$$$
>  <mutantLabel>
E14Q

>  <labelValue>
fulfilled

$$$$
>  <mutantLabel>
E21C

>  <labelValue>
not fulfilled

$$$$
>  <mutantLabel>
F1S

>  <labelValue>
fulfilled

$$$$
>  <mutantLabel>
E21L

>  <labelValue>
fulfilled

$$$$
>  <mutantLabel>
D22M

>  <labelValue>
fulfilled

$$$$
>  <mutantLabel>
R20N

>  <labelValue>
not fulfilled

$$$$
>  <mutantLabel>
R10L

>  <labelValue>
not fulfilled

$$$$
>  <mutantLabel>
I17H

>  <labelValue>
fulfilled

$$$$
>  <mutantLabel>
G3F

>  <labelValue>
fulfilled

$$$$
>  <mutantLabel>
F1D

>  <labelValue>
fulfilled

$$$$
>  <mutantLabel>
F1Q

>  <labelValue>
fulfilled

$$$$
>  <mutantLabel>
I17W

>  <labelValue>
not fulfilled

$$$$
>  <mutantLabel>
G3V

>  <labelValue>
not fulfilled

$$$$
>  <mutantLabel>
E21T

>  <labelValue>
fulfilled

$$$$
>  <mutantLabel>
S8K

>  <labelValue>
not fulfilled

$$$$
>  <mutantLabel>
T13G

>  <labelValue>
not fulfilled

$$$$
>  <mutantLabel>
R20F

>  <labelValue>
fulfilled

$$$$
>  <mutantLabel>
V24G

>  <labelValue>
not fulfilled

$$$$
>  <mutantLabel>
T16D

>  <labelValue>
fulfilled

$$$$
>  <mutantLabel>
H5G

>  <labelValue>
fulfilled

$$$$
>  <mutantLabel>
I17D

>  <labelValue>
fulfilled

$$$$
>  <mutantLabel>
G3E

>  <labelValue>
fulfilled

$$$$
>  <mutantLabel>
S8E

>  <labelValue>
fulfilled

$$$$
>  <mutantLabel>
A15C

>  <labelValue>
fulfilled

$$$$
>  <mutantLabel>
T13A

>  <labelValue>
not fulfilled

$$$$
>  <mutantLabel>
G12R

>  <labelValue>
not fulfilled

$$$$
>  <mutantLabel>
T16L

>  <labelValue>
not fulfilled

$$$$
>  <mutantLabel>
E23S

>  <labelValue>
not fulfilled

$$$$
>  <mutantLabel>
V9A

>  <labelValue>
fulfilled

$$$$
>  <mutantLabel>
L2H

>  <labelValue>
not fulfilled

$$$$
>  <mutantLabel>
I19A

>  <labelValue>
fulfilled

$$$$
>  <mutantLabel>
I19L

>  <labelValue>
fulfilled

$$$$
>  <mutantLabel>
H4Y

>  <labelValue>
not fulfilled

$$$$
>  <mutantLabel>
T13Y

>  <labelValue>
not fulfilled

$$$$
>  <mutantLabel>
H5K

>  <labelValue>
fulfilled

$$$$
>  <mutantLabel>
H5C

>  <labelValue>
not fulfilled

$$$$
>  <mutantLabel>
R10A

>  <labelValue>
not fulfilled

$$$$
>  <mutantLabel>
E23Y

>  <labelValue>
fulfilled

$$$$
>  <mutantLabel>
F7D

>  <labelValue>
fulfilled

$$$$
>  <mutantLabel>
G12S

>  <labelValue>
not fulfilled

$$$$
>  <mutantLabel>
T13F

>  <labelValue>
not fulfilled

$$$$
>  <mutantLabel>
T13E

>  <labelValue>
fulfilled

$$$$
>  <mutantLabel>
S18R

>  <labelValue>
fulfilled

$$$$
>  <mutantLabel>
S8N

>  <labelValue>
fulfilled

$$$$
>  <mutantLabel>
R10K

>  <labelValue>
fulfilled

$$$$
>  <mutantLabel>
V9L

>  <labelValue>
fulfilled

$$$$
>  <mutantLabel>
F7R

>  <labelValue>
fulfilled

$$$$
>  <mutantLabel>
L2A

>  <labelValue>
not fulfilled

$$$$
>  <mutantLabel>
S6D

>  <labelValue>
fulfilled

$$$$
>  <mutantLabel>
E23D

>  <labelValue>
fulfilled

$$$$
>  <mutantLabel>
H5L

>  <labelValue>
fulfilled

$$$$
>  <mutantLabel>
E21H

>  <labelValue>
not fulfilled

$$$$
>  <mutantLabel>
D22S

>  <labelValue>
not fulfilled

$$$$
>  <mutantLabel>
L2P

>  <labelValue>
not fulfilled

$$$$
>  <mutantLabel>
V9W

>  <labelValue>
not fulfilled

$$$$
>  <mutantLabel>
H4T

>  <labelValue>
fulfilled

$$$$
>  <mutantLabel>
G3T

>  <labelValue>
fulfilled

$$$$
>  <mutantLabel>
I17M

>  <labelValue>
not fulfilled

$$$$
>  <mutantLabel>
V9P

>  <labelValue>
fulfilled

$$$$
>  <mutantLabel>
V24Y

>  <labelValue>
not fulfilled

$$$$
>  <mutantLabel>
I17L

>  <labelValue>
not fulfilled

$$$$
>  <mutantLabel>
R10D

>  <labelValue>
fulfilled

$$$$
>  <mutantLabel>
E14T

>  <labelValue>
fulfilled

$$$$
>  <mutantLabel>
S6M

>  <labelValue>
fulfilled

$$$$
>  <mutantLabel>
L2F

>  <labelValue>
fulfilled

$$$$
>  <mutantLabel>
G3P

>  <labelValue>
fulfilled

$$$$
>  <mutantLabel>
A15Y

>  <labelValue>
not fulfilled

$$$$
>  <mutantLabel>
I17P

>  <labelValue>
fulfilled

$$$$
>  <mutantLabel>
T16R

>  <labelValue>
fulfilled

$$$$
>  <mutantLabel>
L2I

>  <labelValue>
fulfilled

$$$$
>  <mutantLabel>
I19M

>  <labelValue>
not fulfilled

$$$$
>  <mutantLabel>
F1E

>  <labelValue>
fulfilled

$$$$
>  <mutantLabel>
V24I

>  <labelValue>
not fulfilled

$$$$
>  <mutantLabel>
H4N

>  <labelValue>
fulfilled

$$$$
>  <mutantLabel>
S6K

>  <labelValue>
not fulfilled

$$$$
>  <mutantLabel>
G12W

>  <labelValue>
not fulfilled

$$$$
>  <mutantLabel>
G3C

>  <labelValue>
fulfilled

$$$$
>  <mutantLabel>
E14V

>  <labelValue>
fulfilled

$$$$
>  <mutantLabel>
L2K

>  <labelValue>
fulfilled

$$$$
>  <mutantLabel>
H5Y

>  <labelValue>
not fulfilled

$$$$
>  <mutantLabel>
T13D

>  <labelValue>
not fulfilled

$$$$
